compounds and their reported PhysData (logP^1)
experiment: logP determination (PhysData, logP^1); settings: Table I-1; cells marked (A) are 1H-NMR, not logP
Number, no unit, nothing else.

Example compounds with recorded PhysData (logP^1):
CC(NC(=S)N1CCOC1=NC1Cc2ccccc2C1)C(F)(F)F (stereo not drawn) [1-20]	4.62
CC(C)NC(=S)N1CCOC1=NC1Cc2ccccc2C1 [1-30]	4.0
COC(=O)CCCNC(=S)N1CCOC1=NC1Cc2ccccc2C1 [1-24]	3.6

The reported value for CCCCNC(=S)N1CCOC1=NC1Cc2ccccc2C1 [1-19] in terms of PhysData (logP^1) is 4.46

The reported value for c1ccc2c(c1)CC(N=C1NCCO1)C2 [1-1] in terms of PhysData (logP^1) is 0.81

The reported value for CCC(NC(=S)N1CCOC1=NC1Cc2ccccc2C1)C(=O)OC (stereo not drawn) [1-27] in terms of PhysData (logP^1) is 4.0

* * *

experiment: physchem
compounds and their reported chromatographic logP
Number, no unit, nothing else.

Example compounds with recorded chromatographic logP:
CC(NC(=S)N1CCOC1=NC1Cc2ccccc2C1)c1cccc(Cl)c1 (stereo not shown) [1-45]	5.3
S=C(NCCc1ccc(Cl)cc1)N1CCOC1=NC1Cc2ccccc2C1 [1-41]	5.1
CC(NC(=S)N1CCOC1=NC1Cc2ccccc2C1)c1ccc(Cl)cc1 (stereo not shown) [1-43]	5.3
Fc1ccc(CNC(=S)N2CCOC2=NC2Cc3ccccc3C2)cc1 [1-47]	4.4

The reported value for S=C(NCCc1cccc(Cl)c1)N1CCOC1=NC1Cc2ccccc2C1 [1-120] in terms of chromatographic logP is 5.1

The reported value for CC(NC(=S)N1CCOC1=NC1Cc2ccccc2C1)c1ccccc1Cl (stereo not shown) [1-44] in terms of chromatographic logP is 5.2

The reported value for S=C(NCc1cccnc1)N1CCOC1=NC1Cc2ccccc2C1 [1-42] in terms of chromatographic logP is 2
